Where these numbers come from: patent US11345669B2

Provide the recorded log10(IC50) for the entries that follow.
# System: IL1-β release upon NLRP3 activation in peripheral blood mononuclear cells (PBMC)
# ASSAY_COMMENT: PBMC IC50 Determination Assay
# Format: cell-based
# CONDITION_NOTES: Homo sapiens; PBMC from buffy coats, LPS 3 h, compound 30 min, then ATP (5 mM) or nigericin (10 μM) for 1 h; IL-1β in media by ELISA; read-out: PBMCs, IC50
# Procedure: PBMC IC50 Determination Assay The compounds of the present disclosure were tested for their inhibitory activity against IL1-β release upon NLRP3 activation in peripheral blood mononuclear cells (PBMC). […] The release of IL-1β into the media was determined by a quantitative detection of IL-1β in 5 the media using an IL-1β enzyme-linked immunosorbent assay (ELISA) Ready-SET-Go!, eBioscience cat. […]
Note: values are log10 of IC50 expressed in nM.

stdin: What does the data say about its log10(IC50)? Entry: CCOC(=O)C(Cc1nc(C)no1)NC(=O)Nc1c2c(cc3c1CCC3)CCC2 (centres unmarked)
stdout: 3.71

stdin: What does the data say about its log10(IC50)? Entry: COC(=O)[C@@H](Cc1cccc(O)c1)NC(=O)Nc1c2c(cc3c1CCC3)CCC2
stdout: 3.11

stdin: What does the data say about its log10(IC50)? Entry: COC(=O)[C@@H](Cc1cccc(NC(C)=O)c1)NC(=O)Nc1c2c(cc3c1CCC3)CCC2
stdout: 2.15

stdin: What does the data say about its log10(IC50)? Entry: COC(=O)C[C@@H](NC(=O)Nc1c2c(cc3c1CCC3)CCC2)C(=O)OC
stdout: 3.46

stdin: What does the data say about its log10(IC50)? Entry: COC(=O)[C@@H](Cc1cncc(OC)c1)NC(=O)Nc1c2c(cc3c1CCC3)CCC2
stdout: 2.65

stdin: What does the data say about its log10(IC50)? Entry: COC(=O)[C@@H](Cc1cccc(CO)c1)NC(=O)Nc1c2c(cc3c1CCC3)CCC2
stdout: 2.58

stdin: What does the data say about its log10(IC50)? Entry: COC(=O)[C@@H](CN)NC(=O)Nc1c2c(cc3c1CCC3)CCC2
stdout: 3.97

stdin: What does the data say about its log10(IC50)? Entry: CCOC(=O)C(Cc1ccncn1)NC(=O)Nc1c2c(cc3c1CCC3)CCC2 (centres unmarked)
stdout: 3.83
